tested.on: I338A v-Src (Rous sarcoma virus subgroup A, UniProt P00524, I338A)
assay.summary: biochemical
property.measured: IC50 (nM)
Numeric only. Scale: nM

input: Which value of IC50 has been reported for `CC(C)(C)n1nc(-c2cccc3ccccc23)c2c(N)ncnc21` in the records?
output: 1

----------
tested.on: Cdc28-as1·MBP-C1b2 (Saccharomyces cerevisiae, UniProt P00546, F88G)
Sequence (P00546 whole entry F88G): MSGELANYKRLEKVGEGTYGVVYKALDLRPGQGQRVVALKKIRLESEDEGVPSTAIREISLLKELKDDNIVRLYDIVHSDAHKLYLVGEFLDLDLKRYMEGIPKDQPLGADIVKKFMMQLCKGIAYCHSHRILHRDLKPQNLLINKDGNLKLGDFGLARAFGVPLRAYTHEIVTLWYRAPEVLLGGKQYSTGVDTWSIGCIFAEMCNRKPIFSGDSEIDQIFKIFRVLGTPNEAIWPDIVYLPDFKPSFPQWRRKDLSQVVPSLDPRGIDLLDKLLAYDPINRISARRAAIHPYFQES
Sequence (P24869 whole entry, further chain): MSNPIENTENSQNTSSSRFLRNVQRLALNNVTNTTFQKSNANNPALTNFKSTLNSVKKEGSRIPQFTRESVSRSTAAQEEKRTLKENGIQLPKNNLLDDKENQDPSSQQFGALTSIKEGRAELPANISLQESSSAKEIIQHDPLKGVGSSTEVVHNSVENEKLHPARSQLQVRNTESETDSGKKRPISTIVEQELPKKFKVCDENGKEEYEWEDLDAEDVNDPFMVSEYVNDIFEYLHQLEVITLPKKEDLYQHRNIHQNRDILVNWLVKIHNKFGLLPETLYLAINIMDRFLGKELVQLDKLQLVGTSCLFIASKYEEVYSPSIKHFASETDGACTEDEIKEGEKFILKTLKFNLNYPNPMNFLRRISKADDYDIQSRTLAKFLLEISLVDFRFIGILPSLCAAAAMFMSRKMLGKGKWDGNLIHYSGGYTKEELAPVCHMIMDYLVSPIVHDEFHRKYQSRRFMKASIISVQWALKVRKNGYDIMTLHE
assay.summary: 1-NM-PP1 IC50, Histone H1 phosphorylation
Format: biochemical
Design: His6 (C); made in house; host or cells: Sf9 insect cells, baculovirus, co-infected with Cak1-HA3 (Cdc28-as1-His6); bacteria (MBP-Clb2)
study.conditions: 1-NM-PP1 IC50 @ 1 mM ATP, 1 mM ATP
property.measured: pIC50
For clarity, pIC50 is expressed as the negative log10 of concentration in mol/L.

input: Fill in the blank: the reported pIC50 of CC(C)(C)n1nc(Cc2cccc3ccccc23)c2c(N)ncnc21 [Compound 6h] is ____.
output: 8.54
